The reported measurements were obtained from ChEMBL document CHEMBL1921678.

- ASSAY TARGET: UniProt:Q12809
- ASSAY OVERVIEW: Inhibition of human ERG
Entries and their log10 INH
On a log10 scale: recorded INH, unit µM.

# input Specify measured log10 INH for NC(=O)C(NC1CCC(c2c[nH]c3ccccc23)CC1)C1CCN(C(=O)c2ccccc2)CC1 (configuration not stated) .
# output 0.74

* * *

- ASSAY TARGET: C-C chemokine receptor type 2 (Homo sapiens)
- Sequence (P41597 whole entry): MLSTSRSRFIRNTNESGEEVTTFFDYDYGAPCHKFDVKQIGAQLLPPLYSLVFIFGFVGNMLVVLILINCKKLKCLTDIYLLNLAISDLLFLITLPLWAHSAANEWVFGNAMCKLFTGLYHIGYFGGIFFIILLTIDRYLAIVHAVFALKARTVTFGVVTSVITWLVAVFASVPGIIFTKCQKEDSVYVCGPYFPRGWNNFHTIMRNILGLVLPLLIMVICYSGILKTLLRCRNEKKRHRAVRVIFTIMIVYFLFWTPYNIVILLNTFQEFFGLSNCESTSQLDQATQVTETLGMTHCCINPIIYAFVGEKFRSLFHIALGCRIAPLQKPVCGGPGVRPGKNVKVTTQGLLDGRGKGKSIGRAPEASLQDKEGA
- ASSAY OVERVIEW: Antagonist activity at human CCR2
MEASURED PROPERTY: pIC50
Reminder that pIC50 is minus the log10 of a molar concentration.

Field: example entries. Status: answers known.
NC(=O)C(NC1CCC(c2ccccc2)CC1)C1CCN(C(=O)/C=C/c2cc(F)c(F)c(F)c2)CC1 (stereo not drawn) : 5.22
COC(=O)C(NC1CCC(c2c[nH]c3ccccc23)CC1)C1CCN(C(=O)/C=C/c2cc(F)c(F)c(F)c2)CC1 (stereo not drawn) : 6.05

# input For the compound NC(=O)C(NC1CCC(c2c[nH]c3ccccc23)CC1)C1CCN(C(=O)/C=C/c2cccc(F)c2)CC1 (stereo not drawn) , give its reported pIC50.
# output 7.19

# input Please supply the value of reported pIC50 for the item NC(=O)C(NC1CCC(c2c[nH]c3ccccc23)CC1)C1CCN(C(=O)Nc2ccccc2)CC1 (stereo not drawn)
# output 5.02

# input Annotate the compound O=C(/C=C/c1cc(F)c(F)c(F)c1)N1CCC(C(CO)NC2CCC(c3c[nH]c4ccccc34)CC2)CC1 (stereo not drawn) with its measured pIC50.
# output 5.04

# input Find the measured pIC50 of CN(C)c1ccc(/C=C/C(=O)N2CCC(C(NC3CCC(c4c[nH]c5ccccc45)CC3)C(N)=O)CC2)cc1 (stereo not drawn) and report it.
# output 5.72

* * *

- ASSAY OVERVIEW: Half life in mouse at 2 mg/kg, iv
- Assay type: ADME, organism-based
- Set-up: dose 2 mg/kg, route intravenous
- CONDITION NOTES: in vivo
MEASURED PROPERTY: half-life

# input Find the measured half-life of NC(=O)C(NC1CCC(c2c[nH]c3ccccc23)CC1)C1CCN(C(=O)/C=C/c2cc(F)cc(F)c2)CC1 (racemic) and report it.
# output 1.9 h

* * *

- ASSAY OVERVIEW: Cmax in mouse at 10 mg/kg, po
- Assay type: ADME, organism-based
- Parameters: dose 10 mg/kg, route oral
- CONDITION NOTES: in vivo
MEASURED PROPERTY: Cmax (ng/mL)
Return type: number; implicit unit ng/mL.

# input Return reported Cmax. Input compound: NC(=O)C(NC1CCC(c2c[nH]c3ccccc23)CC1)C1CCN(C(=O)/C=C/c2cc(F)cc(F)c2)CC1 (racemic)
# output 531

* * *

- ASSAY OVERVIEW: AUC in mouse at 10 mg/kg, po
- Type: ADME, organism-based
- Parameters: dose 10 mg/kg, route oral
- CONDITION NOTES: plasma
MEASURED PROPERTY: AUC (ng·h/mL)
The figure you give is taken to be in ng·h/mL; do not add the unit.

# input Check the records and state AUC for NC(=O)C(NC1CCC(c2c[nH]c3ccccc23)CC1)C1CCN(C(=O)/C=C/c2cc(F)cc(F)c2)CC1 (racemic)
# output 2420

* * *

- ASSAY OVERVIEW: Initial plasma concentration in mouse at 2 mg/kg, iv
- Format: ADME, organism-based
- Parameters: dose 2 mg/kg, route intravenous
MEASURED PROPERTY: C0 (ng/mL)
Give just the number in ng/mL; leave the unit off.

# input Report C0, nothing else, for this compound: NC(=O)C(NC1CCC(c2c[nH]c3ccccc23)CC1)C1CCN(C(=O)/C=C/c2cc(F)cc(F)c2)CC1 (racemic)
# output 1020

* * *

- ASSAY OVERVIEW: Oral bioavailability in mouse at 10 mg/kg
- Assay type: ADME, organism-based
- CONDITION NOTES: in vivo
MEASURED PROPERTY: bioavailability (%)
Respond with the bare value in %.

# input For the molecule NC(=O)C(NC1CCC(c2c[nH]c3ccccc23)CC1)C1CCN(C(=O)/C=C/c2cc(F)cc(F)c2)CC1 (racemic) , report bioavailability.
# output 50

* * *

- ASSAY TARGET: UniProt Q12809
- ASSAY OVERVIEW: Inhibition of human ERG
Entries are grouped by INH into these classes: low: < 2 µM; intermediate: ≥ 2 µM and < 6 µM; high: ≥ 6 µM

Some entries whose results are on file:
NC(=O)C(NC1CCC(c2c[nH]c3ccccc23)CC1)C1CCN(C(=O)Nc2ccccc2)CC1 (stereo unspecified) : high
NC(=O)C(NC1CCC(c2c[nH]c3ccccc23)CC1)C1CCN(C(=O)/C=C/c2c(F)cccc2F)CC1 (stereo unspecified) : intermediate
O=C(NO)C(NC1CCC(c2c[nH]c3ccccc23)CC1)C1CCN(C(=O)/C=C/c2cc(F)c(F)c(F)c2)CC1 (stereo unspecified) : high
NC(=O)C(NC1CCC(c2ccccc2)CC1)C1CCN(C(=O)/C=C/c2cc(F)c(F)c(F)c2)CC1 (stereo unspecified) : intermediate
NC(=O)C(NC1CCC(c2c[nH]c3ccncc23)CC1)C1CCN(C(=O)/C=C/c2cc(F)c(F)c(F)c2)CC1 (stereo unspecified) : low

# input Form field 'band' for NC(=O)C(NC1CCC(c2c[nH]c3ccccc23)CC1)C1CCN(C(=O)/C=C/c2ccc(OC(F)(F)F)cc2)CC1 (stereo unspecified)
# output low

# input Assign a bin to NC(=O)C(NC1CCC(c2c[nH]c3ccccc23)CC1)C1CCN(C(=O)/C=C/c2cc(F)cc(F)c2)CC1 (trans isomer)
# output high

* * *

- ASSAY TARGET: Voltage-gated inwardly rectifying potassium channel KCNH2 (Homo sapiens)
- Sequence (Q12809 whole entry): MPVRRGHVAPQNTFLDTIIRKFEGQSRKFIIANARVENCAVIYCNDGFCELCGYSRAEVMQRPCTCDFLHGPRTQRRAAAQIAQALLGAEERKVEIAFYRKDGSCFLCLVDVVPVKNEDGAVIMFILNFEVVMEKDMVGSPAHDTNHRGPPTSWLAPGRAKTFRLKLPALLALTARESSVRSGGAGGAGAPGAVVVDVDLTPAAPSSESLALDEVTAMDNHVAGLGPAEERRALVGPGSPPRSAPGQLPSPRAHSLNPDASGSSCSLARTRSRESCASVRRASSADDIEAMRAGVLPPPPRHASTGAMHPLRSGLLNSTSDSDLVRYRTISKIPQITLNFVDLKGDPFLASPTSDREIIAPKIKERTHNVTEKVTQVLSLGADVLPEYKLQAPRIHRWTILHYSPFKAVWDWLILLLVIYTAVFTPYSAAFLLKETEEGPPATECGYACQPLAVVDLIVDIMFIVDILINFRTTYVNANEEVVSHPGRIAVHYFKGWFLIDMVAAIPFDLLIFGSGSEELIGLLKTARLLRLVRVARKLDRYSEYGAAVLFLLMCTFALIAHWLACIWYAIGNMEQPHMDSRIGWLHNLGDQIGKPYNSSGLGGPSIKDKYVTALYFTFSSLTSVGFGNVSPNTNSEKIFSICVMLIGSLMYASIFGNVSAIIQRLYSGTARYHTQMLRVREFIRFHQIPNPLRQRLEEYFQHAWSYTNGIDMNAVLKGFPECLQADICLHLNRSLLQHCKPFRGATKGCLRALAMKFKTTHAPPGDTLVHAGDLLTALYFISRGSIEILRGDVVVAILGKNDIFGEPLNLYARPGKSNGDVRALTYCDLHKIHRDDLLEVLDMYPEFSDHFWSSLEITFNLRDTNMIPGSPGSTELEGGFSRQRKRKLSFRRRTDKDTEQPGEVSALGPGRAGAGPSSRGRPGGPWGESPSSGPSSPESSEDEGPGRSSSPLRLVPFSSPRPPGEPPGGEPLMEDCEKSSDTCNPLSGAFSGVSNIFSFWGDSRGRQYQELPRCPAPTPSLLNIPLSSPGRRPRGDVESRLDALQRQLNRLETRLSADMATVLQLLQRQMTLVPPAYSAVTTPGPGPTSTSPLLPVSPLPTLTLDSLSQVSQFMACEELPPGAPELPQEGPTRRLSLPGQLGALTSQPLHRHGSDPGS
- ASSAY OVERVIEW: Inhibition of human ERG
INH less than 2 µM is Criterion met; INH greater than or equal to 2 µM is Criterion not met.

NC(=O)C(NC1CCC(c2c[nH]c3ccccc23)CC1)C1CCN(C(=O)/C=C/c2cc(F)cc(F)c2)CC1 (racemic) : Criterion not met

# input Please let me know if NC(=O)C(NC1CCC(c2c[nH]c3cccnc23)CC1)C1CCN(C(=O)/C=C/c2cc(F)c(F)c(F)c2)CC1 (centres undefined) shows INH below 2 µM.
# output Criterion not met

# input In plain terms, does NC(=O)C(NC1CCC(c2c[nH]c3ccccc23)CC1)C1CCN(Cc2ccccc2)CC1 (centres undefined) come in under 2 µM for INH?
# output Criterion met

# input INH strictly < 2 µM for this compound? NC(=O)C(NC1CCC(c2c[nH]c3cnccc23)CC1)C1CCN(C(=O)/C=C/c2cc(F)c(F)c(F)c2)CC1 (centres undefined)
# output Criterion met

# input I'd appreciate it if you could check whether NC(=O)C(NC1CCC(c2c[nH]c3ccccc23)CC1)C1CCN(C(=O)/C=C/c2cccc(F)c2)CC1 (centres undefined) has INH smaller than 2 µM.
# output Criterion not met

* * *

- ASSAY TARGET: UniProt Q12809
- ASSAY OVERVIEW: Inhibition of human ERG
MEASURED PROPERTY: INH

NC(=O)C(NC1CCC(c2c[nH]c3ccccc23)CC1)C1CCN(C(=O)/C=C/c2ccc(F)cc2)CC1 (centres undefined) : 2.02 µM
NC(=O)C(NC1CCC(c2c[nH]c3ccccc23)CC1)C1CCN(C(=O)/C=C\c2cc(F)cc(F)c2)CC1 (cis isomer) : 2.2 µM
NC(=O)C(NC1CCC(C2CNc3ccccc32)CC1)C1CCN(C(=O)/C=C/c2cc(F)c(F)c(F)c2)CC1 (centres undefined) : 4.2 µM
CC(NC1CCC(c2c[nH]c3ccccc23)CC1)C1CCN(C(=O)/C=C/c2cc(F)c(F)c(F)c2)CC1 (centres undefined) : 0.29 µM
NC(=O)C(NC1CCC(c2c[nH]c3ccccc23)CC1)C1CCN(C(=O)/C=C/c2cc(F)cc(F)c2)CC1 (single isomer, unassigned; (-)) : 20.375 µM

# input Enter measured INH, system UniProt Q12809, for the molecule shown: COC(=O)C(NC1CCC(c2c[nH]c3ccccc23)CC1)C1CCN(C(=O)/C=C/c2cc(F)c(F)c(F)c2)CC1 (centres undefined)
# output 2.2 µM

# input Provide measured INH on UniProt Q12809 for NC(=O)C(NC1CCC(c2c[nH]c3ccccc23)CC1)C1CCN(C(=O)/C=C/c2ccc(Cl)cc2)CC1 (centres undefined) please.
# output 0.87 µM

# input Output reported INH of the molecule NC(=O)C(NC1CCC(c2c[nH]c3ccccc23)CC1)C1CCN(C(=O)/C=C/c2cc(F)c(F)c(F)c2)CC1 (centres undefined) on UniProt Q12809.
# output 3.3 µM

# input Look up and report measured INH (UniProt Q12809) for the following molecule: O=C(/C=C/c1cc(F)c(F)c(F)c1)N1CCC(C(CO)NC2CCC(c3c[nH]c4ccccc34)CC2)CC1 (centres undefined)
# output 0.52 µM

# input GET INH | system: UniProt Q12809 | item: CS(=O)(=O)c1ccc(/C=C/C(=O)N2CCC(C(NC3CCC(c4c[nH]c5ccccc45)CC3)C(N)=O)CC2)cc1 (centres undefined)
# output > 50 µM

# input Fill in: INH on UniProt Q12809, entry CC(C)C1CCC(NC(C(N)=O)C2CCN(C(=O)/C=C/c3cc(F)c(F)c(F)c3)CC2)CC1 (centres undefined)
# output 6.2 µM

# input Using UniProt Q12809 as the test system, report measured INH of COc1ccc(C2CCC(NC(C(N)=O)C3CCN(C(=O)/C=C/c4cc(F)c(F)c(F)c4)CC3)CC2)cn1 (centres undefined) .
# output 11.7 µM

# input Under UniProt Q12809, report INH for NC(=O)C(NC1CCC(c2c[nH]c3ncccc23)CC1)C1CCN(C(=O)/C=C/c2cc(F)c(F)c(F)c2)CC1 (centres undefined)
# output 8.3 µM

# input Write down measured INH (UniProt Q12809) for this molecule. NC(=O)C(NC1CCC(c2c[nH]c3ccccc23)CC1)C1CCN(C(=O)Cc2ccccc2)CC1 (centres undefined)
# output 17.636 µM

# input Give UniProt Q12809 INH for the following molecule: NC(=O)C(NC1CCC(c2c[nH]c3ccccc23)CC1)C1CCN(C(=O)/C=C/c2ccc(F)c(F)c2)CC1 (centres undefined)
# output 1.714 µM

# input Give measured INH for O=C(O)C(C1CCN(C(=O)/C=C/c2cc(F)c(F)c(F)c2)CC1)N1CCC(c2c[nH]c3ccccc23)CC1 (centres undefined) (UniProt Q12809).
# output 1.5 µM

# input Check UniProt Q12809 data and give INH for NC(=O)C(NC1CCC(c2c[nH]c3ccccc23)CC1)C1CCN(C(=O)/C=C/c2ccccc2)CC1 (centres undefined) .
# output 7.35 µM

# input Retrieve INH on UniProt Q12809; query CN(C)c1ccc(/C=C/C(=O)N2CCC(C(NC3CCC(c4c[nH]c5ccccc45)CC3)C(N)=O)CC2)cc1 (centres undefined)
# output > 50 µM

# input Param request: INH | system UniProt Q12809 | item CN(C)C(=O)C(NC1CCC(c2c[nH]c3ccccc23)CC1)C1CCN(C(=O)/C=C/c2cc(F)c(F)c(F)c2)CC1 (centres undefined)
# output 4.4 µM
